Biological target: PTPN2 (Mus musculus, UniProt Q06180)
Construct: HiBiT; host or cells: B16F10.4
Sequence (Q06180 whole entry): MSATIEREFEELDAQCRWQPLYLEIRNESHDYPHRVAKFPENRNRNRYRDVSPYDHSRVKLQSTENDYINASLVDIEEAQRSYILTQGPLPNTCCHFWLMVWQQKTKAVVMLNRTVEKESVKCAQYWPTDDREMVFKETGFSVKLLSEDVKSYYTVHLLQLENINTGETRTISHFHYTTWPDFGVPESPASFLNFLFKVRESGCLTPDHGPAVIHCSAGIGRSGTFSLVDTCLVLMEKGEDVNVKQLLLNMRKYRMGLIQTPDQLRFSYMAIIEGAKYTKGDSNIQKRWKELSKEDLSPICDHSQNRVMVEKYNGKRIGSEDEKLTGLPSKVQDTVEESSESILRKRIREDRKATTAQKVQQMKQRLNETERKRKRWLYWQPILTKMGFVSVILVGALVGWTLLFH
Test: HiBiT PTPN2 degradation in B16F10.4 cells, 24 hours
Assay type: cell-based
In this section, each of the molecules is paired with its reported DC50.

Hello, I am looking for reported DC50 with PTPN2 (Mus musculus, UniProt Q06180) for Cn1c(=O)n(C2CCC(=O)NC2=O)c2ccc(-n3cc(CC(=O)Nc4ccc5c(F)c(N6CC(=O)NS6(=O)=O)c(O)cc5c4)cn3)cc21 (stereo not drawn) [Degrader 153] . Could you help? 50 to 150 nM

Now consider Cn1c(=O)n(C2CCC(=O)NC2=O)c2ccc(-n3ccc4cc(CC(=O)Nc5ccc6c(F)c(N7CC(=O)NS7(=O)=O)c(O)cc6c5)ccc43)cc21 (stereo not drawn) [Degrader 120] and answer again. 50 to 150 nM

Would you kindly repeat that for Cn1nc(C2CCC(=O)NC2=O)c2ccc(C3CCN(C4CC(C(=O)Nc5ccc6c(F)c(N7CC(=O)NS7(=O)=O)c(O)cc6c5)C4)CC3)cc21 (stereo not drawn) [Degrader 30] ? 150 to 500 nM

What do you have for Cn1c(=O)n(C2CCC(=O)NC2=O)c2cccc(N3CCC[C@@H](OCC(=O)Nc4ccc5c(F)c(N6CC(=O)NS6(=O)=O)c(O)cc5c4)C3)c21 (stereo partly drawn) [Degrader 135] ? ≥ 500 nM

Would you kindly repeat that for Cn1cc(C(=O)Nc2ccc3c(F)c(N4CC(=O)NS4(=O)=O)c(O)cc3c2)c2ccc(-c3ccc4c(c3)n(C)c(=O)n4C3CCC(=O)NC3=O)cc21 (stereo not drawn) [Degrader 82] ? 150 to 500 nM

What do you get for C[C@H]1CC(c2ccc3c(c2)n(C)c(=O)n3C2CCC(=O)NC2=O)CCN1CC(=O)Nc1ccc2c(F)c(N3CC(=O)NS3(=O)=O)c(O)cc2c1 (stereo partly drawn) [Degrader 121] ? 50 to 150 nM

====

Entries and their measured DC50 follow.
Molecular target: PTPN2 (Mus musculus, UniProt Q06180)
Construct: HiBiT; host or cells: B16F10.4
Test: HiBiT PTPN2 degradation in B16F10.4 cells, 24 hours
Format: cell-based

Examples from the recorded data:
Cn1c(=O)n(C2CCC(=O)NC2=O)c2ccc(N3CCC(CC(=O)Nc4ccc5c(F)c(N6CC(=O)NS6(=O)=O)c(O)cc5c4)CC3)c(F)c21 (stereo not drawn) [Degrader 46] = 150 to 500 nM
CC(C)n1c(=O)n(C2CCC(=O)NC2=O)c2ccc(N3CCC(CC(=O)Nc4ccc5c(F)c(N6CC(=O)NS6(=O)=O)c(O)cc5c4)CC3)cc21 (stereo not drawn) [Degrader 35] = 150 to 500 nM
Cn1c(=O)n(C2CCC(=O)NC2=O)c2ccc([C@@H]3CCN(CC(=O)Nc4ccc5c(F)c(N6CC(=O)NS6(=O)=O)c(O)cc5c4)C[C@H]3F)cc21 (stereo partly drawn) [Degrader 38] = < 50 nM

Entry CC(C)n1nc(C2CCC(=O)NC2=O)c2ccc(C3CCN(CC(=O)N4CC(Oc5ccc6cc(O)c(N7CC(=O)NS7(=O)=O)c(F)c6c5)C4)CC3(F)F)cc21 (stereo not drawn) [Degrader 13] has what DC50? 50 to 150 nM

Okay, and Cn1c(=O)n(C2CCC(=O)NC2=O)c2ccc(C3CCN(C4CC(C(=O)Nc5ccc6cc(N7CC(=O)NS7(=O)=O)ccc6c5)C4)CC3(F)F)cc21 (stereo not drawn) [Degrader 102] ? 50 to 150 nM

Item: Cn1c(=O)n(C2CCC(=O)NC2=O)c2ccc([C@@H]3CCCN(CC(=O)Nc4ccc5c(F)c(N6CC(=O)NS6(=O)=O)c(O)cc5c4)C3)cc21 (stereo partly drawn) [Degrader 152] 150 to 500 nM

====

Target: PTPN2 (Homo sapiens, UniProt P17706)
Construct: expressed in transfected cells; host or cells: 293T.109 (HiBiT-PTPN2), derived from 293T WT (ATCC)
Sequence (P17706 whole entry): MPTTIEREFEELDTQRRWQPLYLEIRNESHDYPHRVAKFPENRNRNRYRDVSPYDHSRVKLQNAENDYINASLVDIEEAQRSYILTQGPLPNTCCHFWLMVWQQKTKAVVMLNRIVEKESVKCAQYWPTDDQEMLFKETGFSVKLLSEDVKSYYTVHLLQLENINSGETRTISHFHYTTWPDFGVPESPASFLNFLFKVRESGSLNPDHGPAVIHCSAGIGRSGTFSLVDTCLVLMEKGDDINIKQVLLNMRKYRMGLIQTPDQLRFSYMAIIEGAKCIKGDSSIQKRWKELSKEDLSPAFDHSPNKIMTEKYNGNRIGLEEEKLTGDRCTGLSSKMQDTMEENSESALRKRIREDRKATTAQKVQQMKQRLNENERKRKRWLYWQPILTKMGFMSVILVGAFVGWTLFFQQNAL
Experiment: HiBiT PTPN2 degradation in 293T.109 (HiBiT-PTPN2) cells, 24 hours
Assay type: cell-based
Settings: 293T.109 cells
metric-name: DC50

Sample records with DC50:
C[C@@H]1CN(c2ccc3c(c2)n(C)c(=O)n3C2CCC(=O)NC2=O)CC[C@H]1CC(=O)Nc1ccc2c(F)c(N3CC(=O)NS3(=O)=O)c(O)cc2c1 (stereo partly shown) = 50 to 150 nM
Cc1nn(CC(=O)Nc2ccc3c(F)c(N4CC(=O)NS4(=O)=O)c(O)cc3c2)c2ccc(-c3ccc4c(c3)n(C)c(=O)n4C3CCC(=O)NC3=O)cc12 (stereo not shown) = < 50 nM

Sample CCn1c(=O)n(C2CCC(=O)NC2=O)c2ccc(N3CCC(CC(=O)Nc4ccc5c(F)c(N6CC(=O)NS6(=O)=O)c(O)cc5c4)CC3)cc21 (stereo not shown) — what was its DC50? 50 to 150 nM

What do we get for C[C@@H](C(=O)Nc1ccc2c(F)c(N3CC(=O)NS3(=O)=O)c(O)cc2c1)N1CCC(c2ccc3c(c2)n(C)c(=O)n3C2CCC(=O)NC2=O)CC1 (single isomer, unassigned) ? 50 to 150 nM

Subsequent entry: CC(C)n1c(=O)n(C2CCC(=O)NC2=O)c2ccc(N3CCC(CC(=O)Nc4ccc5c(F)c(N6CC(=O)NS6(=O)=O)c(O)cc5c4)CC3)cc21 (stereo not shown) ≥ 500 nM

Try Cn1c(=O)n([C@H]2CCC(=O)NC2=O)c2ccc(N3CCC(CC(=O)Nc4ccc5c(F)c(N6CC(=O)NS6(=O)=O)c(O)cc5c4)CC3)cc21 next. 50 to 150 nM

Now the compound Cc1nn(CC(=O)Nc2ccc3c(F)c(N4CC(=O)NS4(=O)=O)c(O)cc3c2)c(C)c1-c1ccc2c(c1)n(C)c(=O)n2C1CCC(=O)NC1=O (stereo not shown) < 50 nM

====

Target: PTPN2 (Mus musculus, UniProt Q06180)
Construct: HiBiT; host or cells: B16F10.4
Test: HiBiT PTPN2 degradation in B16F10.4 cells, 24 hours
Type: cell-based
metric-name: DC50

Below: 3 compounds and their reported DC50.
Cn1c(=O)n(C2CCC(=O)NC2=O)c2ccc(N3CCC(CCNC(=O)Nc4ccc5c(F)c(N6CC(=O)NS6(=O)=O)c(O)cc5c4)CC3)c(F)c21 (centres unmarked) = 50 to 150 nM
Cc1nn(CC(=O)Nc2ccc3c(F)c(N4CC(=O)NS4(=O)=O)c(O)cc3c2)c(C)c1-c1ccc2c(c1)n(C)c(=O)n2C1CCC(=O)NC1=O (centres unmarked) = < 50 nM
C[C@@H]1CN(c2ccc3c(c2)n(C)c(=O)n3C2CCC(=O)NC2=O)CC[C@@H]1CC(=O)Nc1ccc2c(F)c(N3CC(=O)NS3(=O)=O)c(O)cc2c1 (some centres unmarked) = 50 to 150 nM

Fill in: DC50 of Cn1nc(C2CCC(=O)NC2=O)c2ccc(Nc3ccc(CC(=O)Nc4ccc5c(F)c(N6CC(=O)NS6(=O)=O)c(O)cc5c4)cc3F)cc21 (centres unmarked) is ___ 50 to 150 nM

Lookup CCn1c(=O)n(C2CCC(=O)NC2=O)c2ccc(N3CCC(CC(=O)Nc4ccc5c(F)c(N6CC(=O)NS6(=O)=O)c(O)cc5c4)CC3)cc21 (centres unmarked) 50 to 150 nM

And for Cn1c(=O)n(C2CCC(=O)NC2=O)c2ccc([C@@H]3CCN(CC(=O)N4CC(Oc5ccc6cc(O)c(N7CC(=O)NS7(=O)=O)c(F)c6c5)C4)C3)cc21 (some centres unmarked) ? ≥ 500 nM

Quick one: Cn1c(=O)n(C2CCC(=O)NC2=O)c2ccc(C3CCN(CC(=O)N4CC[C@H](Oc5ccc6cc(O)c(N7CC(=O)NS7(=O)=O)c(F)c6c5)C4)CC3(F)F)cc21 (some centres unmarked) ≥ 500 nM

Thanks! And Cn1c(=O)n(C2CCC(=O)NC2=O)c2ccc(Cc3ccc(CC(=O)Nc4ccc5c(F)c(N6CC(=O)NS6(=O)=O)c(O)cc5c4)cc3)cc21 (centres unmarked) ? 50 to 150 nM

Try this compound too: C[C@@H](C(=O)Nc1ccc2c(F)c(N3CC(=O)NS3(=O)=O)c(O)cc2c1)C1CCN(c2ccc3c(c2)n(C)c(=O)n3C2CCC(=O)NC2=O)CC1 (some centres unmarked) 150 to 500 nM

Continue with Cn1c(=O)n(C2CCC(=O)NC2=O)c2cnc(-c3ccc(CC(=O)Nc4ccc5c(F)c(N6CC(=O)NS6(=O)=O)c(O)cc5c4)cc3)cc21 (centres unmarked) 150 to 500 nM

Same read-out for Cn1c(=O)n(C2CCC(=O)NC2=O)c2ccc(C3CC4CCC(C3)N4CC(=O)Nc3ccc4c(F)c(N5CC(=O)NS5(=O)=O)c(O)cc4c3)cc21 (centres unmarked) [Degrader 50] ? 150 to 500 nM

Reference source for all entries: patent US20240424111A1
